Assay: Inhibition of Mycobacterium tuberculosis HGPRT
Readout Name: pKi
By convention, pKi is the negative base-10 log of a molar concentration.

Fill in: pKi of Nc1nc2c(ncn2[C@@H]2O[C@H](COP(=O)(O)O)[C@@H](O)[C@H]2O)c(=O)[nH]1 is ___
4.70

###

Target: Hypoxanthine-guanine phosphoribosyltransferase (Homo sapiens)
Sequence (P00492 whole entry): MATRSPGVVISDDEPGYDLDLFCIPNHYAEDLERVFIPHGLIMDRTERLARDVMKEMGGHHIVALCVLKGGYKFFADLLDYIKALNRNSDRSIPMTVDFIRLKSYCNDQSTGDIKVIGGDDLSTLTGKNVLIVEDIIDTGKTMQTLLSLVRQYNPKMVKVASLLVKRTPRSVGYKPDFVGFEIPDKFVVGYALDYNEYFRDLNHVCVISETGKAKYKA
Experiment: Inhibition of human HGPRT
# pKi listing for each entry below
By convention, pKi is the negative base-10 log of a molar concentration.

Compound | Reading
Nc1nc2c(ncn2CCN(CCN(CCP(=O)(O)O)CCP(=O)(O)O)CCP(=O)(O)O)c(=O)[nH]1 | 7.52
O=c1[nH]cnc2c1ncn2CCN(CCN(CCP(=O)(O)O)CCP(=O)(O)O)CCP(=O)(O)O | 8.00
Nc1nc2c(ncn2CCN(CCN(CCO)CCP(=O)(O)O)CCP(=O)(O)O)c(=O)[nH]1 | 7.52
O=c1[nH]cnc2c1ncn2CCN(CCN(CCCO)CCP(=O)(O)O)CCP(=O)(O)O | 5.79
Nc1nc2c(ncn2CCN(CCN(CCCO)CCP(=O)(O)O)CCP(=O)(O)O)c(=O)[nH]1 | 7.40
O=c1[nH]cnc2c1ncn2CCN(CCN(CCO)CCP(=O)(O)O)CCP(=O)(O)O | 6.30

// next item, pKi requested
Fill in: pKi of O=c1[nH]cnc2c1ncn2CC(COCCP(=O)(O)O)OCCP(=O)(O)O (configuration not stated) is ___
5.40
